The values you see were collected from paper PMC11629065.

- Target Entity: IL1RL1 with the extracellular risk allele (rs1041973 [C]) and the TIR signalling domain risk haplotype (rs10192157 [C]) (human) (UniProt Q01638)
Parameter Measured: SEAP EC50 Risk:Risk (NF-κB SEAP reporter, transfected HEK293) (nM)
Give the number; nM is assumed, so skip it.

# count of solved cases: 2
Binder: IL33_(113–270) (ligand) ITGISPITEYLASLSTYNDQSITFALEDESYEIYVEDLKKDEKKDKVLLSYYESQHPSNESGDGVDGKMLMVTLSPTKDFWLHANNKEHSVELHKCEKPLPDQAFFVLHNMHSNCVSFECKTDPGVFIGVKDNHLALIKVDSSENLCTENILFKLSET
Display Unit: nM
Test Result: 0.0135
--
Binder: IL33_(109–270) (ligand) HDSSITGISPITEYLASLSTYNDQSITFALEDESYEIYVEDLKKDEKKDKVLLSYYESQHPSNESGDGVDGKMLMVTLSPTKDFWLHANNKEHSVELHKCEKPLPDQAFFVLHNMHSNCVSFECKTDPGVFIGVKDNHLALIKVDSSENLCTENILFKLSET
Display Unit: nM
Test Result: 0.0147

Moving on to the next binder.
Query: Read the entry IL33_(95–270) (ligand) AFGISGVQKYTRALHDSSITGISPITEYLASLSTYNDQSITFALEDESYEIYVEDLKKDEKKDKVLLSYYESQHPSNESGDGVDGKMLMVTLSPTKDFWLHANNKEHSVELHKCEKPLPDQAFFVLHNMHSNCVSFECKTDPGVFIGVKDNHLALIKVDSSENLCTENILFKLSET and write its reported SEAP EC50 Risk:Risk (NF-κB SEAP reporter, transfected HEK293).
Result: 0.00699
